- testProtocol: NFAT Signaling Pathway (AID 444);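 note: carbachol stimulus at about its EC50 of 1 µM final; % is set by controls: 0 for no effect and ±100 for the full control effect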
- reportedConditions: Jurkat NFAT-bla M1, carbachol, beta-lactamase ratio, 5 h; at 7.69 µM (top of the series) unless noted
Results filed as inconclusive are left out. Calls of active or inactive are those of the source. Calls come from the whole dose curve; as a rule, active = well fitted curve in either direction with a large enough effect (not every such curve was filed as active); inconclusive = small, poorly fitted or top-dose-only effect, or another doubt; inactive = flat fitted curve, though single readings scatter.
Documented activity change, negative = inhibition across a set of compounds

O=S(=O)(c1cnccc1N1CCN(CCO)CC1)N1CCCC1    4.17% (inactive)
COCCn1c(=O)c(-c2ccc(OC)cc2)nc2cnc(OC)nc21    8.31% (inactive)
C=C(Br)CN(C)CC(=C)Br    0.988% (inactive)
Cc1nc(CN2CCCCC2)c(O)c(=O)[nH]1    12.6% (inactive)
CCSCCCC(=O)O    2.17% (inactive)
CC(C)=C[C@H]1[C@@H](COC(=O)c2cc3c(cc2Cl)OCO3)C1(C)C    1.43% (inactive)

Ask | Query (compound): `O=C(O)[C@H]1CCc2ccc3ccccc3c2[C@H]1c1cccc2ccccc12` ; field requested: activity change, negative = inhibition
Reply | -25.8% (inactive)

Ask | Query (compound): `COc1c2c(c3c(c1CCC(=O)O)OC(C)(C)C=C3)OC(C)(C)C=C2` ; field requested: activity change, negative = inhibition
Reply | 13.1% (inactive)

Ask | Query (compound): `C=CC[C@@H](C(=O)O)c1ccccc1` ; field requested: activity change, negative = inhibition
Reply | 9.16% (inactive)

###

- testProtocol: NFAT Signaling Pathway (AID 444);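 note: carbachol stimulus at about its EC50 of 1 µM final; % is set by controls: 0 for no effect and ±100 for the full control effect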
- reportedConditions: Jurkat NFAT-bla M1, carbachol, beta-lactamase ratio, 5 h; at 7.69 µM (top of the series) unless noted
Results filed as inconclusive are left out.
metric: activity change, negative = inhibition (%)
Field: numeric (%). Do not append units.

Here's what some known entries look like.
O=C(O)CCC(O)=C1S(=O)(=O)OCCOS1(=O)=O    2.36
O=C(O)C(Cc1ccccc1)Cc1ccccc1    1.48

Ask | Query (molecule): `Cc1cc(C(C)(C)C)c(OCCCN2CCOCC2)c(C(C)(C)C)c1` ; field requested: activity change, negative = inhibition
Reply | -12.7

Ask | Query (molecule): `O=C(O)[C@@H](c1ccccc1)[C@@H](C(=O)O)c1ccccc1` ; field requested: activity change, negative = inhibition
Reply | 6.48

Ask | Query (molecule): `Nc1nc(N)c(N=Nc2ccc(C(=O)O)c(O)c2)c(N)n1` ; field requested: activity change, negative = inhibition
Reply | 15.4

Ask | Query (molecule): `NC(=O)SCC(=O)Nc1ccc2ncccc2c1` ; field requested: activity change, negative = inhibition
Reply | 12.1

Ask | Query (molecule): C[C@H]1CCCC=CC2C[C@H](OC(=O)CN(C)C)C[C@@H]2[C@@H](O)/C=C\C(=O)O1 (stereo not given in full) ; field requested: activity change, negative = inhibition
Reply | 29.7

Ask | Query (molecule): `Nc1ncnc2c1ncn2CCCCC(=O)O` ; field requested: activity change, negative = inhibition
Reply | 13.9

Ask | Query (molecule): `O=C(CSc1nc2ccccc2c2ccccc12)c1ccccc1` ; field requested: activity change, negative = inhibition
Reply | 10.2

###

- testedSystem: Lysosomal acid glucosylceramidase (Homo sapiens)
- testProtocol: Glucocerebrosidase-p2 (AID 348); note: potency is the fitted concentration of half-maximal effect
- reportedConditions: purified GBA, blue fluorogenic substrate, 40 min
Activity calls are given as the source filed them. Cut-off read from the data, not from the text of the source: active = potency below about 10 µM; inactive = the rest.
Use one of these outcomes when replying: active, inactive

Examples with answers:
O=C(O)CCSCc1ccccc1    inactive
Cc1cc(N2CCOCC2)nc2ccc(Cc3ccc4nc(N5CCOCC5)cc(C)c4c3)cc12    active
COCCn1c(=O)c(-c2ccccc2)nc2cnc(Nc3ccccc3)nc21    inactive
OC[C@@H]1O[C@H](n2cnc3c(/C=C(\O)c4ccccc4)ncnc32)[C@H](O)[C@@H]1O    inactive

Then this compound:
Ask | Could you please tell me the result logged for `Oc1ccccc1C(Sc1nc2ccccc2s1)Sc1nc2ccccc2s1` in this assay?
Reply | inactive
